Target: Poly [ADP-ribose] polymerase 1 (Homo sapiens)
Sequence (P09874 whole entry): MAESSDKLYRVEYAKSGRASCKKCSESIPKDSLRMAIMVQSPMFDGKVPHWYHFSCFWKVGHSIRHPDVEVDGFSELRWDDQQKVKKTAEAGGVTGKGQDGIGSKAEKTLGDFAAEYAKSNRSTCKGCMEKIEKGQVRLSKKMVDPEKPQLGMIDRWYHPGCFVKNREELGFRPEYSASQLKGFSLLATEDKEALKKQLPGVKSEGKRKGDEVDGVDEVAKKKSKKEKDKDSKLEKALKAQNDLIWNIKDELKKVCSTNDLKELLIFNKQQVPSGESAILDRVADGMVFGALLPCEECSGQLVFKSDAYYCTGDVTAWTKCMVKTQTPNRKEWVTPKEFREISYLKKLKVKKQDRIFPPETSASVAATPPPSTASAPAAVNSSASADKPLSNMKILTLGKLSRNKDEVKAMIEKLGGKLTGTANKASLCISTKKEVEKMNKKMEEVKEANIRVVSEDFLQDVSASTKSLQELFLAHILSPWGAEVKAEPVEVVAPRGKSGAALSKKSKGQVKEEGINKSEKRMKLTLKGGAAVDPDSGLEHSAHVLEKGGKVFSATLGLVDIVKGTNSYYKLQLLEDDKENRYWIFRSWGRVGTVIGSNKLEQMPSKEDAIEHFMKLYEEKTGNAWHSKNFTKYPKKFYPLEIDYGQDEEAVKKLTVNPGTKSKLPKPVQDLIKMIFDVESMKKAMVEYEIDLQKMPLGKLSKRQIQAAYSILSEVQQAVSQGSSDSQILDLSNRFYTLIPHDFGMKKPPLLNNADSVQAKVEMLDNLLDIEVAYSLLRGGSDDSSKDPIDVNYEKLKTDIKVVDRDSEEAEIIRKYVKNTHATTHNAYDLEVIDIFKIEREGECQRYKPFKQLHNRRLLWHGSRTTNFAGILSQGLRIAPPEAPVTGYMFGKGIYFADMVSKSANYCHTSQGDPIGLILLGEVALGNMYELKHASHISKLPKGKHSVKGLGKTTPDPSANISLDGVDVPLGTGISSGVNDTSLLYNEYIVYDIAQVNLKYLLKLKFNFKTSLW
Experiment: Inhibition of recombinant human PARP-1
pIC50: −log10 of the molar value.

- molecule: "Cc1cc(NCCc2ccc(O)cc2)c2nncn2n1"
  pIC50: "< 5.00"

----------
Molecular target: Poly [ADP-ribose] polymerase 2 (Homo sapiens)
Sequence (Q9UGN5 whole entry): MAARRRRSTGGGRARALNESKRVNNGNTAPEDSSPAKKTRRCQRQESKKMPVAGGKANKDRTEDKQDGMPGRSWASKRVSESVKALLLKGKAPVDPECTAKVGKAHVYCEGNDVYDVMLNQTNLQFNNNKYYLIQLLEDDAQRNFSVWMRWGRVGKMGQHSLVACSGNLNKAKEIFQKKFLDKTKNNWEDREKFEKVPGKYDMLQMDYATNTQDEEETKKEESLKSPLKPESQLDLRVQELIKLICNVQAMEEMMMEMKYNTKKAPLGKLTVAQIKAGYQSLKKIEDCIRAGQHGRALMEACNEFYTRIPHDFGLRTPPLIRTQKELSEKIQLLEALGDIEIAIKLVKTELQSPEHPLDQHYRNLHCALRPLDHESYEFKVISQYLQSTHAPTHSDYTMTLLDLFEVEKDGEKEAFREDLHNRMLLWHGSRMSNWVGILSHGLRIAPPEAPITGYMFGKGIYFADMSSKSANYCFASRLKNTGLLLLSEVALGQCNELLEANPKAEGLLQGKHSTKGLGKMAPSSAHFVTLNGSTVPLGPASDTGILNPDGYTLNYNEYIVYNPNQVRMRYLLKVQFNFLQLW
Assay: Inhibition of recombinant human PARP-2
pIC50: −log10 of the molar value.
recordedMetric: pIC50

- molecule: "Cc1cc(NCCc2ccc(O)cc2)c2nncn2n1"
  recordedMetric: "pIC50"
  dataValue: "< 5.00"
